assay_overview: Solubility test in low-polarity solvents (saturated solution, λmax, solubility, εC)
Assay type: physicochemical
experimental_setup: Isopar G solution
result_type: λmax (absorption-maximum wavelength) (nm)
Only the number, expressed in nm, is required.

{"columns": ["compound", "measure_unit", "λmax (absorption-maximum wavelength)"],
 "data": [
  ["CCCCC(CC)CN(CC(CC)CCCC)c1ccc(/N=N/c2snc(CC)c2C#N)c(C)c1 (stereo not shown)", "nm", 526],
  ["CCCCC(CC)CN(CC(CC)CCCC)c1ccc(/N=N/c2snc(C)c2C#N)c(NC(=O)CC)c1 (stereo not shown)", "nm", 543],
  ["CCCCC(CC)CNc1ccc(NCC(CC)CCCC)c2c1C(=O)c1ccccc1C2=O (stereo not shown) [Comparative dye 2, reference compound]", "nm", 649],
  ["CCCCC(CC)CN(CC(CC)CCCC)c1ccc(/N=N/c2snc(C)c2C#N)c(CC)c1 (stereo not shown)", "nm", 533],
  ["CCCCC(CC)CN(CC(CC)CCCC)c1ccc(N=Nc2snc(CC)c2C#N)c(NC(C)=O)c1 (stereo not shown)", "nm", 542]
]}

Endpoint output: λmax (absorption-maximum wavelength) of CCCCC(CC)CN(CC(CC)CCCC)c1ccc(N=Nc2snc(C)c2C#N)c(NC(C)=O)c1 (stereo not shown) . Value? 542

Consider next the compound CCCCC(CC)CN(CC(CC)CCCC)c1ccc(/N=N/c2sc(C(=O)OCC)c(C)c2C(=O)OCC)c(NC(=O)CC)c1 (stereo not shown) in the same way. 535

* * *

This listing pairs molecules with measured Light fastness: retention of dye.
assay_overview: Light fastness test (retention of dye after 2 hours of high-pressure mercury lamp irradiation)
Type: physicochemical
experimental_setup: Isopar G; 1 mg in 250 mL, 2 hours irradiation
API: value field is a number in %; no unit string.

See these solved cases before continuing.
{"columns": ["molecule", "value"],
 "data": [
  ["CCCCC(CC)CN(CC(CC)CCCC)c1ccc(N=Nc2snc(C)c2C#N)c(NC(C)=O)c1 (stereo not shown)", 100],
  ["CCCCC(CC)CNc1ccc(NCC(CC)CCCC)c2c1C(=O)c1ccccc1C2=O (stereo not shown) [Comparative dye 2, reference compound]", 85],
  ["CCCCC(CC)CN(CC(CC)CCCC)c1ccc(/N=N/c2snc(CC)c2C#N)c(C)c1 (stereo not shown)", 98]
]}

Here is another molecule to look at.
What value of Light fastness: retention of dye has been recorded for this entry: CCCCC(CC)CN(CC(CC)CCCC)c1ccc(/N=N/c2sc(C(=O)OCC)c(C)c2C(=O)OCC)c(NC(=O)CC)c1 (stereo not shown) 98

* * *

Quick reference: λmax (absorption-maximum wavelength) of the listed items.
assay_overview: Solubility test in low-polarity solvents (saturated solution, λmax, solubility, εC)
Format: physicochemical
experimental_setup: n-decane solution
The reply should be a number in nm, with the unit left off.

Recorded results for 5 compounds are shown here.
{"columns": ["compound", "measure_unit", "value"],
 "data": [
  ["CCCCC(CC)CN(CC(CC)CCCC)c1ccc(N=Nc2snc(CC)c2C#N)c(NC(C)=O)c1 (centres unmarked)", "nm", 543],
  ["CCCCC(CC)CN(CC(CC)CCCC)c1cc(C)c(/N=N/c2snc(C)c2C#N)cc1OC (centres unmarked)", "nm", 563],
  ["CCCCC(CC)CN(CC(CC)CCCC)c1ccc(/N=N/c2snc(C(C)C)c2C#N)c(C)c1 (centres unmarked)", "nm", 527],
  ["CCOC(=O)c1sc(/N=N/c2ccc(N(CC(C)C)CC(C)C)cc2C)c(C(=O)OCC)c1C", "nm", 498],
  ["CCCCC(CC)CNc1ccc(NCC(CC)CCCC)c2c1C(=O)c1ccccc1C2=O (centres unmarked) [Comparative dye 2, reference compound]", "nm", 652]
]}

Please look up its λmax (absorption-maximum wavelength): CCCCC(CC)CN(CC(CC)CCCC)c1ccc(/N=N/c2snc(C)c2C#N)c(C(C)C)c1 (centres unmarked) 535

# repeat for CCCCC(CC)CN(CC(CC)CCCC)c1ccc(/N=N/c2snc(C)c2C#N)c(CC)c1 (centres unmarked) 533

Another compound to check: `CCCCc1nsc(/N=N/c2ccc(N(CC(C)C)CC(C)C)cc2NC(C)=O)c1C#N` 543
